assayed.target: vanilloid receptor (Rattus norvegicus)
Construct: DRG nerve cells from the primary culture of 2 days were equilibrated; endogenous in cells; host or cells: primary culture of dorsal root ganglion neurons from neonatal SD rats
procedure.details: 45Ca influx test in cultured neonatal rat DRG neurons, inhibition of capsaicin response
Assay type: cell-based
run.parameters: neonatal rat DRG neurons, capsaicin 0.5 μM, 45Ca influx; read-out: Antagonist Calcium Uptake Test (IC50)
readout.kind: pIC50
Field pIC50 (float): negative decimal logarithm of the concentration in molar.

Please review the following examples before continuing.
[[record]]
compound = "C#Cc1cc(CNC(=O)/C=C/c2ccc(C(F)(F)F)nc2NCCOC)cc(F)c1NS(C)(=O)=O"
numeric_readout = 7.05

[[record]]
compound = "CCC(C)c1nc(C(F)(F)F)ccc1/C=C/C(=O)NCc1cc(F)c(NS(C)(=O)=O)c(F)c1 (centres unmarked)"
numeric_readout = 6.72

[[record]]
compound = "CCCNc1nc(C(F)(F)F)ccc1/C=C/C(=O)NCc1ccc(NS(C)(=O)=O)c(Cl)c1"
numeric_readout = 6.82

[[record]]
compound = "CCCc1nc(C(F)(F)F)ccc1/C=C/C(=O)NCc1ccc(NS(C)(=O)=O)c(C)c1"
numeric_readout = 7.31


Request: If you can, please state the reported pIC50 value of `CCCCc1nc(C(F)(F)F)ccc1C#CC(=O)N[C@H](C)c1cc(F)c(NS(C)(=O)=O)c(F)c1` .
Result: 6.82

---

assayed.target: vanilloid receptor (Rattus norvegicus, UniProt O35433)
Construct: DRG nerve cells from the primary culture of 2 days were equilibrated; endogenous in cells; host or cells: primary culture of dorsal root ganglion neurons from neonatal SD rats
Sequence (O35433 whole entry): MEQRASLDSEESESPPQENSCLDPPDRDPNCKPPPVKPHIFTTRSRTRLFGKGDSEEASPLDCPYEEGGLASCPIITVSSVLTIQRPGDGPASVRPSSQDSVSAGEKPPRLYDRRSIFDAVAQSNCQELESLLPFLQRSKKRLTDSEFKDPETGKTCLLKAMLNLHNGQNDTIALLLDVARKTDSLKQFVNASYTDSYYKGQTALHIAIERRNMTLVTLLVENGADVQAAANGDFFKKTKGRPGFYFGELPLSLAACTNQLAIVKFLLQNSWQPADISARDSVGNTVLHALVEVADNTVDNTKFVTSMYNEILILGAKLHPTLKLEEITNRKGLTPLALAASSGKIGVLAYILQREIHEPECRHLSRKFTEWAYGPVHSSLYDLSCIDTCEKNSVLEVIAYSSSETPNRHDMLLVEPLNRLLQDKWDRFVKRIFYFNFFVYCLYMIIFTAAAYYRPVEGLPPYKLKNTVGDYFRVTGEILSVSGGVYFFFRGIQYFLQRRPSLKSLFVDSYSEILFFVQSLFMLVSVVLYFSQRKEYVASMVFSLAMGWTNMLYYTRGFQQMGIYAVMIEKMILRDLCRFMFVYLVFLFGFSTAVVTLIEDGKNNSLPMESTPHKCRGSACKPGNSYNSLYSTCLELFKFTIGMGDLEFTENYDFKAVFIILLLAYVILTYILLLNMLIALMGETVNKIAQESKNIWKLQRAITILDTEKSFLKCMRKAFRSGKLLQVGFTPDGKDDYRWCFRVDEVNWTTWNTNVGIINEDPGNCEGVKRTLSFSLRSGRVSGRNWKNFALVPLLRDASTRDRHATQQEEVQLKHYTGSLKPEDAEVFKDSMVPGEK
procedure.details: 45Ca influx test in cultured neonatal rat DRG neurons, inhibition of capsaicin response
Assay type: cell-based
run.parameters: neonatal rat DRG neurons, capsaicin 0.5 μM, 45Ca influx; read-out: Antagonist Calcium Uptake Test (IC50)
readout.kind: IC50

Please review the following examples before continuing.
[[record]]
molecular_string = "CC(C)(C)c1ccc(OCC(=O)NCc2ccc(NS(C)(=O)=O)c(F)c2)cn1"
result = "> 10 µM"

[[record]]
molecular_string = "CS(=O)(=O)Nc1ccc(CNC(=O)/C=C/c2cnc(Cl)cc2C(F)(F)F)cc1F"
result = "> 10 µM"

[[record]]
molecular_string = "C#Cc1cc(CNC(=O)/C=C/c2ccc(C(F)(F)F)nc2-c2cccc(OC)c2)cc(F)c1NS(C)(=O)=O"
result = "> 1 µM"


Request: If you can, please state the reported IC50 value of `C#Cc1cc(CNC(=O)/C=C/c2ccc(N3CCOCC3)nc2)cc(F)c1NS(C)(=O)=O` .
Result: > 10 µM
